test: xn = mol fraction of the nth substance listed; conditions: 298.15 K; 101 kPa; x2 = 0.2
± gives the uncertainty stated by the source.
outcome-measure: viscosity

ClCCl + CCCCC; 0.348 ± 0.006 mPa·s
CC(=O)O + CS(C)=O; 2.359 ± 0.048 mPa·s
ClCCCl + c1ccccc1; 0.686 ± 0.0077 mPa·s
ClCCl + CCCO; 0.639 ± 0.007 mPa·s
ClCCl + CC(C)O; 0.458 ± 0.006 mPa·s
